- Species on record: Rattus norvegicus
- assay.method.text: Open TG-GATES - Regimen: Single
- Format: toxicity, organism-based, Sprague-Dawley
- Set-up: regimen Single, gender Male, age 6 weeks
- condition: in vivo, po, 300 mg/kg, 3 h, tissue Blood, route gavage, dose level Middle
experimental.endpoint: WBC
Write the numeric value and follow it with the unit.

The reported value for COC(=O)C1=C(C)NC(C)=C(C(=O)OC)C1c1ccccc1[N+](=O)[O-] in terms of WBC is 113.9 x10_2/uL

The reported value for CN/C(=N/CCSCc1nc[nH]c1C)NC#N in terms of WBC is 84.3 x10_2/uL

The reported value for O=C(OC[C@H]1O[C@@H](OC(=O)c2cc(O)c(O)c(OC(=O)c3cc(O)c(O)c(O)c3)c2)[C@H](OC(=O)c2cc(O)c(O)c(OC(=O)c3cc(O)c(O)c(O)c3)c2)[C@@H](OC(=O)c2cc(O)c(O)c(OC(=O)c3cc(O)c(O)c(O)c3)c2)[C@@H]1OC(=O)c1cc(O)c(O)c(OC(=O)c2cc(O)c(O)c(O)c2)c1)c1cc(O)c(O)c(OC(=O)c2cc(O)c(O)c(O)c2)c1 in terms of WBC is 113.5 x10_2/uL

The reported value for Cc1nnc2n1-c1ccc(Cl)cc1C(c1ccccc1Cl)=NC2 in terms of WBC is 63.2 x10_2/uL

The reported value for CNC(=C[N+](=O)[O-])NCCSCc1ccc(CN(C)C)o1 in terms of WBC is 93.9 x10_2/uL

---

- Organism: Rattus norvegicus
- assay.method.text: Open TG-GATES - Regimen: Single
- Format: toxicity, organism-based, Sprague-Dawley
- Design: regimen Single, gender Male, age 6 weeks
- condition: in vivo, po, 100 mg/kg, 9 h, tissue Plasma, route gavage, dose level Low
Note to self: values exactly at 40 IU/L are rule met. So ALT at or above 40 IU/L is rule met, below is rule not met.

Could you please find out whether CNC(=C[N+](=O)[O-])NCCSCc1ccc(CN(C)C)o1 has ALT that meets 40 IU/L or exceeds it?
rule not met

Could you please find out whether COC(=O)C1=C(C)NC(C)=C(C(=O)OC)C1c1ccccc1[N+](=O)[O-] has ALT that meets 40 IU/L or exceeds it?
rule met

Could you please find out whether Cc1nnc2n1-c1ccc(Cl)cc1C(c1ccccc1Cl)=NC2 has ALT that meets 40 IU/L or exceeds it?
rule not met

Could you please find out whether CN/C(=N/CCSCc1nc[nH]c1C)NC#N has ALT that meets 40 IU/L or exceeds it?
rule not met

Could you please find out whether O=C(OC[C@H]1O[C@@H](OC(=O)c2cc(O)c(O)c(OC(=O)c3cc(O)c(O)c(O)c3)c2)[C@H](OC(=O)c2cc(O)c(O)c(OC(=O)c3cc(O)c(O)c(O)c3)c2)[C@@H](OC(=O)c2cc(O)c(O)c(OC(=O)c3cc(O)c(O)c(O)c3)c2)[C@@H]1OC(=O)c1cc(O)c(O)c(OC(=O)c2cc(O)c(O)c(O)c2)c1)c1cc(O)c(O)c(OC(=O)c2cc(O)c(O)c(O)c2)c1 has ALT that meets 40 IU/L or exceeds it?
rule not met

---

Assign KIDNEY_L to each entry below.
- Species: Rattus norvegicus
- assay.method.text: Open TG-GATES - Regimen: Single
- Assay type: toxicity, organism-based, Sprague-Dawley
- Parameters: regimen Single, gender Male, age 6 weeks
- condition: in vivo, po, 100 mg/kg, 24 h, tissue Kidney, route gavage, dose level Low
Provide only the numeric value, understood in g.

The reported value for CNC(=C[N+](=O)[O-])NCCSCc1ccc(CN(C)C)o1 [RANITIDINE] in terms of KIDNEY_L is 1

The reported value for Cc1nnc2n1-c1ccc(Cl)cc1C(c1ccccc1Cl)=NC2 [TRIAZOLAM] in terms of KIDNEY_L is 0.9

The reported value for COC(=O)C1=C(C)NC(C)=C(C(=O)OC)C1c1ccccc1[N+](=O)[O-] [NIFEDIPINE] in terms of KIDNEY_L is 0.9

The reported value for O=C(OC[C@H]1O[C@@H](OC(=O)c2cc(O)c(O)c(OC(=O)c3cc(O)c(O)c(O)c3)c2)[C@H](OC(=O)c2cc(O)c(O)c(OC(=O)c3cc(O)c(O)c(O)c3)c2)[C@@H](OC(=O)c2cc(O)c(O)c(OC(=O)c3cc(O)c(O)c(O)c3)c2)[C@@H]1OC(=O)c1cc(O)c(O)c(OC(=O)c2cc(O)c(O)c(O)c2)c1)c1cc(O)c(O)c(OC(=O)c2cc(O)c(O)c(O)c2)c1 [TANNIC ACID] in terms of KIDNEY_L is 0.9

The reported value for CN/C(=N/CCSCc1nc[nH]c1C)NC#N [CIMETIDINE] in terms of KIDNEY_L is 1

Values compiled from ChEMBL document CHEMBL3885861.
